Target: S1P1 (Homo sapiens)
Assay: CNG cAMP Assay (Assay 1)
Assay type: cell-based
Design: host or cells: HEK293 cells expressing the CNG channel
Settings: read-out: Assay 1 EC50
Sequence (P21453 whole entry): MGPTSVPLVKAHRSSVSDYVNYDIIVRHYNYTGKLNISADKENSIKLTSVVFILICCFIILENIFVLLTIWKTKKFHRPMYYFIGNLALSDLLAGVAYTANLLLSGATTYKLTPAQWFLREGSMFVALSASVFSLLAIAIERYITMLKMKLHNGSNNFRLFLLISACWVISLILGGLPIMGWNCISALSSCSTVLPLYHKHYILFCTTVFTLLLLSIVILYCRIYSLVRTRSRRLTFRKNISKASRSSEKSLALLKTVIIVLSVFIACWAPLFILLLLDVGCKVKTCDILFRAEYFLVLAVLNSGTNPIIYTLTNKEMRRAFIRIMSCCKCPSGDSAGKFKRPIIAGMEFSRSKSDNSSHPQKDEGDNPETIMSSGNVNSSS
attribute_measured: EC50

For orientation, consider the following solved cases.
# input # query: EC50 of entry Fc1cccc(F)c1-c1noc(-c2cn3cc(C(F)(F)F)cc(Cl)c3n2)n1 [Example 141]
# output 500 to 1000 nM

# input Likewise for Fc1ccccc1-c1noc(-c2cn3cc(C(F)(F)F)cc(Cl)c3n2)n1 [Example 142] ?
# output 100 to 500 nM

# input Moving on to the next compound: O=C(O)[C@@H]1C[C@H](Oc2ccc(-c3noc(-c4cn5cc(C(F)(F)F)cc(Cl)c5n4)n3)c(Cl)c2)CN1 [Example 276]
# output ≤ 100 nM

Next:
# input GET /values?readout=EC50&item= Fc1cccc(F)c1-c1nnc(-c2cn3cc(C(F)(F)F)cc(Cl)c3n2)o1 [Entry 66]
# output 500 to 1000 nM

---

Target: S1P1 (Homo sapiens, UniProt P21453)
Assay: Tango β-arrestin Recruitment Assay in HEK293 cells (Assay 2a)
Assay type: cell-based
Design: linker with TEV protease (N1a) cleavage site (C); host or cells: HEK293, transiently transfected
Conditions: Tango β-arrestin Recruitment Assay, read-out: Assay 2a EC50
Sequence (P21453 whole entry): as above
Sequence (P32121 whole entry partner): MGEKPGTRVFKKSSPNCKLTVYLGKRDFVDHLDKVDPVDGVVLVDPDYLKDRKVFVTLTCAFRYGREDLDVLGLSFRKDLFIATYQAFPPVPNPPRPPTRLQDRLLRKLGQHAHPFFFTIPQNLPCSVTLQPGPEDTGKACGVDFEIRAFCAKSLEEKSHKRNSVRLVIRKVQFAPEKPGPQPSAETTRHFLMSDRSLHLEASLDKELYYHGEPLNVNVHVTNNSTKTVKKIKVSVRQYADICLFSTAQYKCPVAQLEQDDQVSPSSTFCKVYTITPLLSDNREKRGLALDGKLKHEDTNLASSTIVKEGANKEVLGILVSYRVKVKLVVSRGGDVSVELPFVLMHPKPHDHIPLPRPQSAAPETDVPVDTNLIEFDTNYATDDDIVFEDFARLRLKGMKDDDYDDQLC
Measured EC50 of individual entries

A selection of reference data follows.
# input Param item = O=C(O)CN1CCC(Oc2cc(Cl)c(-c3noc(-c4cn5cc(C(F)(F)F)cc(Cl)c5n4)n3)cc2F)C1 (stereo not shown) ; retrieve measured EC50.
# output ≤ 100 nM

# input Could you do the same for `O=C(O)CCc1ccc(-c2nnc(-c3cn4cc(C(F)(F)F)cc(Cl)c4n3)s2)c(Cl)c1` , please?
# output ≤ 100 nM

# input Now the same for `CS(=O)(=O)Nc1ccc(-c2noc(-c3cn4cc(C(F)(F)F)cc(Cl)c4n3)n2)c(Cl)c1`
# output 100 to 500 nM

# input Next: CC(Cc1cc(Cl)c(-c2nc(-c3cn4cc(C(F)(F)F)cc(Cl)c4n3)no2)cc1Cl)C(=O)O (stereo not shown)
# output ≤ 100 nM

# input Moving on to CC(O)COc1c(Cl)cc(-c2noc(-c3cn4cc(C(F)(F)F)cc(Cl)c4n3)n2)cc1Cl (stereo not shown)
# output ≤ 100 nM

# input Now give it for NC(CO)COc1cc(Cl)c(-c2nnc(-c3cn4cc(C(F)(F)F)cc(Cl)c4n3)s2)cc1F (stereo not shown) too.
# output ≤ 100 nM

Others:
# input Item `O=C(O)C1CN(Cc2ccc(-c3noc(-c4cn5cc(C(F)(F)F)cc(Cl)c5n4)n3)c(Cl)c2)C1` has what recorded EC50?
# output 100 to 500 nM

---

// reported EC50 for each item listed
Target: S1P1 (Homo sapiens)
Assay: Tango β-arrestin Recruitment Assay in HEK293 cells (Assay 2a)
Assay type: cell-based
Set-up: linker with TEV protease (N1a) cleavage site (C); host or cells: HEK293, transiently transfected
Details: Tango β-arrestin, footnote 1: Relative EC50 was measured, read-out: Assay 2a Relative EC50

# input // lookup EC50 for CC(Cc1cc(Cl)c(-c2noc(-c3cn4cc(C(F)(F)F)cc(Cl)c4n3)n2)cc1Cl)C(=O)O (stereo not drawn)
# output 100 to 500 nM

# input Record: `OCCNCc1cc(Cl)c(-c2noc(-c3cn4cc(C(F)(F)F)cc(Cl)c4n3)n2)cc1Cl`
# output 100 to 500 nM

Next:
# input State the recorded EC50 for this entry: CC(Cc1cc(Cl)c(-c2noc(-c3cn4cc(C(F)(F)F)cc(Br)c4n3)n2)cc1Cl)C(=O)O (stereo not drawn)
# output 100 to 500 nM

---

Listed here: items and their measured pEC50.
Target: hS1P1R (hEdg1) (Homo sapiens)
Sequence (P21453 whole entry): as the sequence (P21453 whole entry) above
Experiment: hS1P1R GTPγS Binding Assay (Assay 3a)
pEC50: −log10 of the molar value.

Field: example entries. Status: answers known.
# input // map Cc1cc(C2CC2C(=O)O)c(F)cc1-c1noc(-c2cn3cc(C(F)(F)F)cc(Cl)c3n2)n1 (centres unmarked) to recorded pEC50 (system: hS1P1R (hEdg1) (Homo sapiens))
# output 6.00 to 6.30

# input Repeat with `O=C(O)CCc1cc(Cl)c(-c2nnc(-c3cn4cc(C(F)(F)F)cc(Br)c4n3)s2)cc1F`
# output ≥ 7.00

# input Please do the same for `OC[C@H](O)COc1cc(Cl)c(-c2noc(-c3cn4cc(C(F)(F)F)cc(Cl)c4n3)n2)cc1Cl` as well.
# output ≥ 7.00

Next:
# input Given the entry `OCCCOc1cc(Cl)c(-c2noc(-c3cn4cc(C(F)(F)F)cc(Cl)c4n3)n2)cc1Cl` , what pEC50 was observed with hS1P1R (hEdg1) (Homo sapiens)?
# output ≥ 7.00

# input Record: `O=C(O)CCc1cc(Cl)c(-c2nnc(-c3cn4cc(I)cc(Cl)c4n3)s2)cc1F`
# output 5.30 to 6.00

# input // same read-out, input: OCC(O)COc1c(Cl)cc(-c2noc(-c3cn4cc(C(F)(F)F)cc(Cl)c4n3)n2)cc1Cl (centres unmarked)
# output ≥ 7.00

# input Lookup OCC(O)COc1cc(Cl)c(-c2noc(-c3cn4cc(C(F)(F)F)cc(Cl)c4n3)n2)cc1F (centres unmarked)
# output ≥ 7.00

# input Lookup Cc1cc(-c2noc(-c3cn4cc(C(F)(F)F)cc(Cl)c4n3)n2)cc(C)c1OCC(O)CO (centres unmarked)
# output ≥ 7.00

---

# pEC50 per record follows
Biological target: S1P1 (Homo sapiens, UniProt P21453)
Assay: DELFIA GTP-Eu Binding Assay (Assay 3b)
Type: biochemical
Parameters: purchased Lonza; host or cells: CHO cell membranes
Settings: read-out: Assay 3b EC50
pEC50: −log10 of the molar value.

# input Given the molecule O=C(O)CCc1cc(Cl)c(-c2nc(-c3cn4cc(C(F)(F)F)cc(Br)c4n3)no2)cc1F [Example 238] , what is its reported pEC50?
# output 6.30 to 7.00

More entries:
# input Entry under review: O=C(O)CCNCc1ccc(-c2noc(-c3cn4cc(C(F)(F)F)cc(Cl)c4n3)n2)c(Cl)c1 [Example 130] . Reported pEC50?
# output 6.00 to 6.30

# input Same read-out for CC(CO)Oc1cc(Cl)c(-c2noc(-c3cn4cc(C(F)(F)F)cc(Cl)c4n3)n2)cc1F (stereo not drawn) [Example 259] ?
# output 6.30 to 7.00

# input Follow-up entry: O=C(O)CCc1cc(Cl)c(-c2noc(-c3cn4cc(C(F)(F)F)cc(Cl)c4n3)n2)cc1F [Entry 24]
# output ≥ 7.00

# input Next: Cc1cc(-c2noc(-c3cn4cc(C(F)(F)F)cc(Cl)c4n3)n2)cc(C)c1OCC(O)CO (stereo not drawn) [Example 161]
# output 6.30 to 7.00

# input Now give it for NCC(O)COc1cc(Cl)c(-c2noc(-c3cn4cc(C(F)(F)F)cc(Cl)c4n3)n2)cc1Cl (stereo not drawn) [Example 226] too.
# output 6.00 to 6.30

---

Target: S1P1 (Homo sapiens, UniProt P21453)
Assay: CNG cAMP Assay (Assay 1)
Format: cell-based
Design: host or cells: HEK293 cells expressing the CNG channel
Conditions: read-out: Assay 1 EC50
pEC50: −log10 of the molar value.
Listing of recorded pEC50 by entry.

Here's what some known entries look like.
# input Give pEC50 (S1P1 (Homo sapiens, UniProt P21453)) of the following compound: CC(CC(=O)O)c1ccc(-c2noc(-c3cn4cc(C(F)(F)F)cc(Cl)c4n3)n2)c(F)c1 (centres unmarked)
# output 6.30 to 7.00

# input Same again, this time with `CS(=O)(=O)Nc1cc(Cl)c(-c2nc(-c3cn4cc(C(F)(F)F)cc(Cl)c4n3)no2)cc1F`
# output ≥ 7.00

# input `FC(F)(F)c1cc(Cl)c2nc(-c3nc(-c4ccccc4C(F)(F)F)no3)cn2c1` ?
# output 6.30 to 7.00

# input Could you do the same for `N#Cc1cc(Cl)c2nc(-c3nc(-c4cc(F)c(CCC(=O)O)cc4Cl)no3)cn2c1` , please?
# output ≥ 7.00

# input Another compound to look at: `CS(=O)(=O)NCc1ccc(-c2noc(-c3cn4cc(C(F)(F)F)cc(Cl)c4n3)n2)c(Cl)c1`
# output ≥ 7.00

# input Let us now turn to `O=C(O)CCOc1ccc(-c2noc(-c3cn4cc(C(F)(F)F)cc(Cl)c4n3)n2)c(Cl)c1`
# output ≥ 7.00

# input // same read-out, input: NC(=O)C(CC(=O)O)c1ccc(-c2noc(-c3cn4cc(C(F)(F)F)cc(Cl)c4n3)n2)c(Cl)c1 (centres unmarked)
# output 6.30 to 7.00

Here is the next item to consider.
# input Under S1P1 (Homo sapiens, UniProt P21453): pEC50 value of `CS(=O)(=O)Nc1ccc(-c2noc(-c3cn4cc(C(F)(F)F)cc(Cl)c4n3)n2)c(Cl)c1` ?
# output ≥ 7.00

FYI, the data here is from patent US20100160369A1.
